Test system: MS2 coat protein
protocol: apparent KD of MS2 coat protein; designed switch direction (-1 OFF switch, 1 ON switch): 1; higher = weaker reporter binding
condition.description: input ligand: FMN 200 uM
recorded.endpoint: apparent KD of MS2 coat protein (µM)
Give bare numbers, in µM.

These recorded examples may help you get a feel for the data.
sequence	unit.symbol	meas.value
UUAUUAAUUACAUGAGGAUCACCCAUGUUAAAUAGUCAGAGACAGGAUAUAGAAGUCUCGUUUUACUAGAAGGGUCAUUAUAUG [JR_SSNG3_Sub013] (Eterna round: R96, puzzle: Same State NG 3)	µM	0.0407
UAGGAUCAACGAGGAUAUAAUAGGUUCUAUUCGUGAUAUUGCGUACAUGAGGAUCACCCAUGUUAUUAGAAGGCGUAUGGGUUU [JR_SSNG2_Sub085] (Eterna round: R96, puzzle: Same State NG 2)	µM	0.0787
AAGCAGAGGCAAGGAUAUGUGAAGACCCAGCCUAGGCUGGGCACAUGAGGAUCACCCAUGUACAAACAGAAGGUGUAACCAGGC [Eternabot solution 18] (Eterna round: R96, puzzle: Same State NG 2)	µM	0.0405
GGGAGAGUUACAGGAUAUGGUGAGGAUUACCCACUAGAAGGGUAAACAUGUGAAUCGGACAUGAGGAUCACCCAUGUUGGGCGU (Eterna round: R96, puzzle: Same State NG 1)	µM	0.162
GCGUUUAACGUAGGAUAUCGAGCUACAUGAGGAUCACCCAUGUCUUUGUAAAGUUUUUUUAAUUCCGAGAAGGACGUAUUGCAU [JR_SSNG2_Sub073] (Eterna round: R96, puzzle: Same State NG 2)	µM	0.0271

Each sequence below has a reported value. Please supply its apparent KD of MS2 coat protein.
1. GCUCGAAUCACAGCCAACAUGAGGAUCACCCAUGUAUGUUGGUAGGAUAUCGUUUCUAAGGGAAACGAGAAGGGCCGAACGAGC [SameState NG3 #10] (Eterna round: R96, puzzle: Same State NG 3)
2. GUUACAUGAGGAUCACCCAUGUAUGUGUGGGAGUAAGUGUCUUAGGAUAUCUAGUAUUUAGUUUAAGAGAAGGAAGAUUGUUGU [JMF's solution 61] (Eterna round: R96, puzzle: Same State NG 3)
3. ACAUGAGACCUAGGAUAUAUUGUACCUACAUGUGACAUGAGGAUCACCCAUGUGGUAAGUAUGACAUAGAAGGAGGAGAUAUGU [Equivalance 93 - Jieux - Same State NG 2] (Eterna round: R96, puzzle: Same State NG 2)

Output:
1. 0.171
2. 0.127
3. 0.0315

Task: # apparent KD of MS2 coat protein lookup, item GCUCGAUGAGCGGUUUACAUGAGGAUCACCCAUGUACAUGGGCAGGAUAUUUACGUGCUUUGUGUAGAGAAGGGCCCAUCGAGC [SameState NG3 #74] (Eterna round: R96, puzzle: Same State NG 3)
Output: 0.0924

====

Tested on: MS2 coat protein
protocol: apparent KD of MS2 coat protein; higher = weaker reporter binding
condition.description: Eterna round: R107; input ligand: tryptophan 2.4 mM
recorded.endpoint: apparent KD of MS2 coat protein
The reply should read as a number followed by its unit.

sequence	apparent KD of MS2 coat protein
AAACGUUGCUGCGAUACCAGACAUGAGGAUCACCCAUGUACCAAGGUAACCGAAAGGCAUGUCCCUUGGCAGCGCAGCAACGAAA [MAT - Exclusion Theophlline B - Mod of Eli - D17]	13.5 nM
AAGUGGCACGGAAGGAGCGAGUUUGCCUAUUACAUGAGGAUCACCCAUGUGGGUAAUGGGACUCAGGUAGGUCGCCGUUGUCACU [Same State Arginine B GF 26]	46.3 nM
ACUCGGUGUUUGUUGCUCCGAGUGUAUGAUACCAGUUAGUUUUAUGGCCCUUGGCAGCAUAGGACAUGAGGAUCACCCAUGUGUU [#02 SameState-TheophyllineA]	34.9 nM
GGACUAACCAGAAGGAGCGGCGCGCAGAAACUGCAAAAUCCUCCGCACGAGGAUCACCCGUGUCAGGUAGGUCGCUGGUUAGUCG [ArgBX 28]	17.3 nM
UUAGUAACGACGGCCGCCACUGAUUUUGGACAUGAGGAUCACCCAUGUAAAGAUCCUAGAAUGGUCAGGACCGGGUCUGAUAAUG [Exclusion Tryptophane B GF4]	64.4 nM

Each sequence below has a reported value. Please supply its apparent KD of MS2 coat protein.
1. UGUCUAGUAAUCGAUACCAGCUACAUGAGGAUCACCCAUGUAGUUCGAACGGCCGCAUGUAGCCCUUGGCAGCGAAUAGUUACAU [Onbitelege]
2. UGAUGGUUCGGAAGGAGCGUGUAAGAACAAGAACAUGAGGAUCACCCAUGUAUUAAUUUAACACAGGUAGGUCGCCGAGUUAUUG [11.I]
3. ACAUGAGGAUCACCCAUGUAUCAACGGGAAGGAGCGCCAAACAAGGCAGGUAGGUCGCCCACAUGAGGAUCACCCGUGUGUUGGG [Exclusion Arginine A GF 30]

Output:
1. 18.7 nM
2. 17 nM
3. 38.4 nM

Each sequence below has a reported value. Please supply its apparent KD of MS2 coat protein.
1. GGCACAUAGUCGGCCGCCACUACGUGGAGAUCGGAGUACAUGAGGAUCACCCAUGUAUGGAAGGGUAGGACCGGGACUAUGUGCC [Horalka]
2. UGGCGAGAAGGAAGGAGCGUCAGCUGAGUCACAUGAGGAUCACCCAUGUCGCACAUAGUGUGACAGGUAGGUCGCCUUCUGCCCU [Beinmain]
3. UGGUACAUGAGGAUCACCCAUGUUCCAGAUACCAGAUACCCGGUUAUCCCUUGGCAGCUGGUGGUACAUGAGGAUCACCCAUGUG [Exclusion Theophylline A GF15]
4. UAUAUGGUGAUGGAUACCAGCAGAGAAAACGUUUAUCCUAACAUGAGGAUCACCCAUGUAUGCCCUUGGCAGCUGUUGUUAUAUA [8.M]

Output:
1. 18.7 nM
2. 156 nM
3. 44 nM
4. 35.2 nM

The values you see were collected from the supplement of paper PMC9170038.
